- procedure.summary: ATG_FoxO_CIS: Attagene CIS-FACTORIAL HepG2 Assay for human Forkhead box O (FoxO) (AID 2282943)
- condition.summary: HepG2 Attagene cis-reporter, FoxO element, mRNA; actives raise or lower the signal
Calls of active or inactive are those of the source. The calls were made as follows: active = hit-call score of the fitted dose curve at least 0.9, where 1 is the maximum; inactive = score below 0.9.
Response enum: active, inactive

Solved cases (3 shown):
• Oc1ccc(C2(c3ccc(O)c(C4CCCCC4)c3)CCCCC2)cc1C1CCCCC1 = inactive
• COCCC(=O)OC = inactive
• FC(F)(F)C(F)(F)C(F)(F)CC1CO1 (stereo not given) = inactive

## Task # outcome recorded in this test, key = CC1=CCC(=O)O1
## Result inactive

## Task How about this compound: O=S(=O)(O)CCC(F)(F)C(F)(F)C(F)(F)C(F)(F)C(F)(F)C(F)(F)C(F)(F)C(F)(F)F
## Result inactive

## Task How about this compound: NC(=O)C(F)(F)C(F)(F)C(F)(F)F
## Result inactive

## Task How about this compound: C=CC(=O)OCC(F)(F)C(F)(F)C(F)(F)C(F)(F)C(F)(F)C(F)(F)C(F)(F)C(F)F
## Result inactive

## Task How about this compound: CCC(Cc1c(I)cc(I)c(N)c1I)C(=O)O (stereo not given)
## Result inactive

## Task How about this compound: Cc1ccc(O)cn1
## Result inactive

## Task How about this compound: C=C(C)C(=O)OCC(F)(F)C(F)(F)C(F)(F)C(F)F
## Result inactive

## Task How about this compound: NC(O)(C(F)(F)F)C(F)(F)F
## Result inactive

## Task How about this compound: CCC(=O)OC(C)c1ccccc1 (stereo not given)
## Result inactive

## Task How about this compound: CCCCCCCC/C=C\CCCCCCCC(=O)N(C)CC(=O)O
## Result inactive

## Task How about this compound: OCC(F)(F)C(F)(F)C(F)(F)C(F)(F)C(F)(F)C(F)(F)C(F)(F)C(F)(F)CO
## Result inactive

## Task How about this compound: CC(=O)C=O
## Result inactive

## Task How about this compound: Cc1cc(O)c(C(C)(C)C)cc1C(C)(C)C
## Result inactive

## Task How about this compound: CCOC(=O)CCC(C)=O
## Result inactive

## Task How about this compound: CC(C)C(=O)OCc1ccccc1
## Result inactive

## Task How about this compound: CC(O)C#CC(C)O (stereo not given)
## Result active

## Task How about this compound: CN(C)C(C)(C)CO
## Result inactive

Source of measurements: PubChem BioAssay (EPA / NIEHS)
